Recorded values, source patent US20060241172A1.

tgt: human 5-hydroxytryptamine-2C (h5-HT2C) receptor (Homo sapiens, UniProt P28335)
Construct: expressed in transfected cells; host or cells: CHO (Chinese Hamster Ovary) cells; membranes
Sequence (P28335 33-458): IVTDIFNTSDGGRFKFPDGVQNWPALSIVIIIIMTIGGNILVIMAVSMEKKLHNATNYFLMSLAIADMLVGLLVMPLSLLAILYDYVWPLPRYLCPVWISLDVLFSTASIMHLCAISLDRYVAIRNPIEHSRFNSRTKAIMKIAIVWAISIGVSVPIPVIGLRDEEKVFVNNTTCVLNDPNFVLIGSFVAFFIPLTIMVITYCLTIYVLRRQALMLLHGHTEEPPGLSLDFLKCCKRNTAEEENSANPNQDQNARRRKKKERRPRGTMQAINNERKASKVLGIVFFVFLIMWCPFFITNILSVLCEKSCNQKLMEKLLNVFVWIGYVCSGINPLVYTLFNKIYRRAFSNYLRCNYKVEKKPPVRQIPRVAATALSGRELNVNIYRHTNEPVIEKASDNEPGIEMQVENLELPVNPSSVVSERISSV
assay: 5-HT2C binding: [125I]DOI displacement in membranes of transfected CHO cells
settings: read-out: 5-HT2C Binding Ki avg
pKi: −log10 of the molar value.
Let's look at some compounds and their measured pKi.
measuredParameter: pKi

| compound | tgt | measuredParameter | recordedValue |
| --- | --- | --- | --- |
| CC(C)NCC1COc2cccc(-c3ccc(Cl)cc3Cl)c2O1 (stereo not shown) | human 5-hydroxytryptamine-2C (h5-HT2C) receptor (Homo sapiens, UniProt P28335) | pKi | < 6.70 |
| NCC1Oc2cc(F)cc(-c3cc(Cl)ccc3Cl)c2O1 (stereo not shown) | human 5-hydroxytryptamine-2C (h5-HT2C) receptor (Homo sapiens, UniProt P28335) | pKi | > 7.30 |
| NCC1Oc2cc(F)cc(-c3ccccc3F)c2O1 (stereo not shown) | human 5-hydroxytryptamine-2C (h5-HT2C) receptor (Homo sapiens, UniProt P28335) | pKi | > 7.30 |
| C[C@]1(CN)COc2cccc(-c3ccsc3)c2O1 | human 5-hydroxytryptamine-2C (h5-HT2C) receptor (Homo sapiens, UniProt P28335) | pKi | < 6.70 |
| CCNCC1COc2cccc(-c3ccc(Cl)cc3Cl)c2O1 (stereo not shown) | human 5-hydroxytryptamine-2C (h5-HT2C) receptor (Homo sapiens, UniProt P28335) | pKi | 6.70 to 7.30 |
| Clc1ccccc1-c1cccc2c1OC(CNC1CC1)CO2 (stereo not shown) | human 5-hydroxytryptamine-2C (h5-HT2C) receptor (Homo sapiens, UniProt P28335) | pKi | < 6.70 |
| NCC1Oc2cc(Cl)cc(-c3ccccc3F)c2O1 (stereo not shown) | human 5-hydroxytryptamine-2C (h5-HT2C) receptor (Homo sapiens, UniProt P28335) | pKi | 6.70 to 7.30 |
| CNCC1COc2cccc(-c3ccccc3OC)c2O1 (stereo not shown) | human 5-hydroxytryptamine-2C (h5-HT2C) receptor (Homo sapiens, UniProt P28335) | pKi | < 6.70 |
| NC[C@H]1Oc2cc(F)cc(-c3c(Cl)cccc3Cl)c2O1 | human 5-hydroxytryptamine-2C (h5-HT2C) receptor (Homo sapiens, UniProt P28335) | pKi | > 7.30 |
| CNCC1COc2cccc(-c3cccc(OC)c3OC)c2O1 (stereo not shown) | human 5-hydroxytryptamine-2C (h5-HT2C) receptor (Homo sapiens, UniProt P28335) | pKi | 6.70 to 7.30 |
| Clc1ccc(-c2cccc3c2OC(CNC2CC2)CO3)c(Cl)c1 (stereo not shown) | human 5-hydroxytryptamine-2C (h5-HT2C) receptor (Homo sapiens, UniProt P28335) | pKi | 6.70 to 7.30 |
| CN(C)CC1COc2cccc(-c3ccccc3Cl)c2O1 (stereo not shown) | human 5-hydroxytryptamine-2C (h5-HT2C) receptor (Homo sapiens, UniProt P28335) | pKi | > 7.30 |
| CC(C)NCC1COc2cccc(-c3ccccc3Cl)c2O1 (stereo not shown) | human 5-hydroxytryptamine-2C (h5-HT2C) receptor (Homo sapiens, UniProt P28335) | pKi | < 6.70 |
| NCC1Oc2cc(F)cc(-c3ccccc3Cl)c2O1 (stereo not shown) | human 5-hydroxytryptamine-2C (h5-HT2C) receptor (Homo sapiens, UniProt P28335) | pKi | > 7.30 |
| NC[C@H]1COc2cc(F)cc(-c3c(Cl)cccc3Cl)c2O1 | human 5-hydroxytryptamine-2C (h5-HT2C) receptor (Homo sapiens, UniProt P28335) | pKi | > 7.30 |
| CNCC1COc2cccc(-c3ccccc3C(F)(F)F)c2O1 (stereo not shown) | human 5-hydroxytryptamine-2C (h5-HT2C) receptor (Homo sapiens, UniProt P28335) | pKi | 6.70 to 7.30 |
| NCC1COc2cccc(-c3ccccc3Cl)c2O1 (stereo not shown) | human 5-hydroxytryptamine-2C (h5-HT2C) receptor (Homo sapiens, UniProt P28335) | pKi | > 7.30 |
| NCC1Oc2cc(Cl)cc(-c3cc(Cl)ccc3Cl)c2O1 (stereo not shown) | human 5-hydroxytryptamine-2C (h5-HT2C) receptor (Homo sapiens, UniProt P28335) | pKi | > 7.30 |
| Cc1cc(Cl)ccc1-c1cc(Cl)cc2c1OC(CN)O2 (stereo not shown) | human 5-hydroxytryptamine-2C (h5-HT2C) receptor (Homo sapiens, UniProt P28335) | pKi | 6.70 to 7.30 |
| Cc1cc(Cl)ccc1-c1cc(Cl)cc2c1O[C@@H](CN)CO2 | human 5-hydroxytryptamine-2C (h5-HT2C) receptor (Homo sapiens, UniProt P28335) | pKi | > 7.30 |
| C[C@]1(CN)COc2cccc(-c3ccccc3)c2O1 | human 5-hydroxytryptamine-2C (h5-HT2C) receptor (Homo sapiens, UniProt P28335) | pKi | < 6.70 |
| NC[C@H]1COc2cc(Cl)cc(-c3ccccc3F)c2O1 | human 5-hydroxytryptamine-2C (h5-HT2C) receptor (Homo sapiens, UniProt P28335) | pKi | > 7.30 |
| COc1ccc(OC)c(-c2cc(Cl)cc3c2OC(CN)O3)c1 (stereo not shown) | human 5-hydroxytryptamine-2C (h5-HT2C) receptor (Homo sapiens, UniProt P28335) | pKi | < 6.70 |
| NC[C@H]1COc2cccc(-c3c(Cl)cccc3Cl)c2O1 | human 5-hydroxytryptamine-2C (h5-HT2C) receptor (Homo sapiens, UniProt P28335) | pKi | > 7.30 |
| CCNCC1Oc2cc(F)cc(-c3ccccc3Cl)c2O1 (stereo not shown) | human 5-hydroxytryptamine-2C (h5-HT2C) receptor (Homo sapiens, UniProt P28335) | pKi | 6.70 to 7.30 |
| Cc1cccc(C)c1-c1cccc2c1OC(CN)CO2 (stereo not shown) | human 5-hydroxytryptamine-2C (h5-HT2C) receptor (Homo sapiens, UniProt P28335) | pKi | > 7.30 |
| COc1ccc(Cl)cc1-c1cc(Cl)cc2c1O[C@@H](CN)CO2 | human 5-hydroxytryptamine-2C (h5-HT2C) receptor (Homo sapiens, UniProt P28335) | pKi | 6.70 to 7.30 |
| NCC1COc2cccc(-c3ccccc3C(F)(F)F)c2O1 (stereo not shown) | human 5-hydroxytryptamine-2C (h5-HT2C) receptor (Homo sapiens, UniProt P28335) | pKi | > 7.30 |
| NC[C@H]1COc2ccc(Cl)c(-c3ccccc3Cl)c2O1 | human 5-hydroxytryptamine-2C (h5-HT2C) receptor (Homo sapiens, UniProt P28335) | pKi | > 7.30 |
| COc1ccc(Cl)cc1-c1cccc2c1OC(CN)CO2 (stereo not shown) | human 5-hydroxytryptamine-2C (h5-HT2C) receptor (Homo sapiens, UniProt P28335) | pKi | 6.70 to 7.30 |
| C=CCNCC1COc2cccc(-c3ccc(Cl)cc3Cl)c2O1 (stereo not shown) | human 5-hydroxytryptamine-2C (h5-HT2C) receptor (Homo sapiens, UniProt P28335) | pKi | < 6.70 |
| NCC1COc2cccc(-c3cc(Cl)ccc3Cl)c2O1 (stereo not shown) | human 5-hydroxytryptamine-2C (h5-HT2C) receptor (Homo sapiens, UniProt P28335) | pKi | > 7.30 |
| NC[C@H]1COc2cc(Cl)cc(-c3ccccc3C(F)(F)F)c2O1 | human 5-hydroxytryptamine-2C (h5-HT2C) receptor (Homo sapiens, UniProt P28335) | pKi | > 7.30 |
| C[C@]1(CN)COc2cccc(-c3ccccc3Cl)c2O1 | human 5-hydroxytryptamine-2C (h5-HT2C) receptor (Homo sapiens, UniProt P28335) | pKi | > 7.30 |
| COc1ccccc1-c1cccc2c1O[C@@](C)(CN)CO2 | human 5-hydroxytryptamine-2C (h5-HT2C) receptor (Homo sapiens, UniProt P28335) | pKi | < 6.70 |
| NC[C@H]1COc2cccc(-c3ccccc3Cl)c2O1 | human 5-hydroxytryptamine-2C (h5-HT2C) receptor (Homo sapiens, UniProt P28335) | pKi | > 7.30 |
| CCCNCC1COc2cccc(-c3ccc(Cl)cc3Cl)c2O1 (stereo not shown) | human 5-hydroxytryptamine-2C (h5-HT2C) receptor (Homo sapiens, UniProt P28335) | pKi | 6.70 to 7.30 |
| COc1ccccc1-c1cc(F)cc2c1OC(CN)O2 (stereo not shown) | human 5-hydroxytryptamine-2C (h5-HT2C) receptor (Homo sapiens, UniProt P28335) | pKi | > 7.30 |
| NCC1Oc2cc(F)cc(-c3cccc(Cl)c3)c2O1 (stereo not shown) | human 5-hydroxytryptamine-2C (h5-HT2C) receptor (Homo sapiens, UniProt P28335) | pKi | 6.70 to 7.30 |
| Clc1ccccc1-c1cccc2c1OC(CNCC1CC1)CO2 (stereo not shown) | human 5-hydroxytryptamine-2C (h5-HT2C) receptor (Homo sapiens, UniProt P28335) | pKi | 6.70 to 7.30 |
